Tested on: smallflower umbrella sedge
Test Method Notes: Test C flooded paddy test
Type: in vivo, Cyperus difformis
Assay Conditions: 62 g ai/ha, scale 0 to 100 (0 no effect, 100 complete control)
As shown below, each of these compounds has a reported Sedge, Umbrella plant response rating value.
Kindly provide the number alone.

1. CCn1nc(C(C)(C)C)cc1C(=O)Nc1cccc(C(=O)NCCF)c1 = 55
2. CC(=O)c1cccc(NC(=O)c2cc(C(C)(C)C)nn2CCF)c1 = 80
3. CCNC(=O)c1ccc(F)c(NC(=O)c2cn(C(C)(C)C)nc2CC)c1 = 75
4. CC(=O)c1cccc(NC(=O)c2cc(C(C)(C)C)nn2CC(F)(F)F)c1 = 0
5. CCc1nc(C(C)(C)C)sc1C(=O)Nc1cccc(C(=O)NCCF)c1 = 55

Q: Requested read-out: Sedge, Umbrella plant response rating. Entry: CCN1CCc2c(NC(=O)c3cc(C(C)(C)C)nn3CC)cccc2C1=O
Result: 0

###

System: morningglory
Test Method Notes: Test C pre-/postemergence herbicide test
Assay type: in vivo, Ipomoea coccinea
Parameters: key: 0 = no effect, 100 = complete control
Assay Conditions: 125 g ai/ha; scale 0 (no effect) to 100 (complete control); visual, 12 to 14 days; preemergence
As shown below, each of these compounds has a reported Plant response rating, Morningglory value.
Kindly provide the number alone.

Consider the reported Plant response rating, Morningglory for these compounds:
1) CC(=O)c1cccc(NC(=O)c2cc(C(C)(C)C)nn2CCF)c1 = 30
2) CCn1nc(C(C)(C)C)cc1C(=O)Nc1ccc(OC)c(OC)c1 = 5
3) CCN1N=C(C(C)(C)C)CC1C(=O)Nc1cc(C(=O)N2CC=CC2)ccc1F (racemic) = 5
4) CCc1nc(C(C)(C)C)sc1C(=O)Nc1cccc(C(=O)N(CC)CC)c1 = 0
5) CCn1nc(C2(C)CC2)cc1C(=O)Nc1cc(C(=O)N2CC=CC2)ccc1F = 5

// next entry
Q: Requested read-out: Plant response rating, Morningglory. Entry: CCN(CC)C(=O)c1ccnc(NC(=O)c2cc(C(C)(C)C)nn2CC)c1
Result: 0

###

As shown below, each of these molecules has a reported Plant response rating, Guineagrass value.
System: guineagrass
Test Method Notes: Test E pre-/postemergence herbicide test
Format: in vivo, Panicum maximum
Assay Conditions: Preemergence; 250 g ai/ha; scale 0 (no effect) to 100 (complete control)
Kindly provide the number alone.

1. CCc1nn(C(C)C)nc1C(=O)Nc1cccc(C(=O)N(C)CC)c1 [Compound 386] = 100
2. CCNC(=O)c1cccc(NC(=O)c2cc(C(C)(C)C)nn2CC)n1 [Compound 144] = 60
3. CCN1N=C(C(C)(C)C)CC1C(=O)Nc1cc(C(=O)N(C)C)ccc1F (stereo not shown) [Compound 268] = 100

// next entry
Q: Requested read-out: Plant response rating, Guineagrass. Entry: CCc1nn(C(C)C)nc1C(=O)Nc1cccc(C(=O)N2CCCCC2)c1 [Compound 385]
Result: 100

###

Tested on: giant foxtail
Test Method Notes: Test B pre-/postemergence herbicide test
Assay type: in vivo, Setaria faberi
Assay Conditions: Setaria faberi, pre-emergence, 336 h, 500 g ai/ha; visual rating, 0 = no effect, 100 = complete control; read-out: Plant response rating, Foxtail, Giant
Experimental: […] At the same time, plants selected from these crop and weed species and also blackgrass (Alopecurus myosuroides Huds.), wheat (Triticum aestivum L.) and wild oat (Avena fatua L.) were treated with postemergence applications of test chemicals formulated in the same manner. […] Treated plants and controls were maintained in a greenhouse for 13 to 15 days, after which time all species were compared to controls and visually evaluated. […]
Experimental Readout: pest or weed control at 500 g/ha (%)
Respond with the bare value in %.

Consider the reported pest or weed control at 500 g/ha for these compounds:
1. CCOC(=O)c1cccc(NC(=O)c2nn(C(C)(C)C)nc2CC)c1 [Compound 360] = 90
2. CCN(CC)C(=O)c1cncc(NC(=O)c2cc(C(C)(C)C)nn2CC)c1 [Compound 261] = 0
3. CCN1N=C(C(C)(C)C)CC1C(=O)Nc1cc(C(=O)N(C)C)ccc1F (stereo not shown) [Compound 268] = 100

// next entry
Q: Requested read-out: pest or weed control at 500 g/ha. Entry: CCc1nn(C(C)(C)C)cc1C(=O)Nc1cc(C(=O)N(C)C)ccc1F [Compound 222]
Result: 90

###

System: wheat
Test Method Notes: Test B postemergence herbicide test
Assay type: in vivo, Triticum aestivum
Design: key: 0 = no effect, 100 = complete control
Assay Conditions: Postemergence, 500 g ai/ha; scale 0 (no effect) to 100 (complete control)
Experimental Readout: Wheat plant response rating

Consider the reported Wheat plant response rating for these molecules:
1) CCc1nn(C(C)C)nc1C(=O)Nc1cccc(C(=S)N(C)C)c1 [Compound 409] = 10
2) CCc1nn(C(C)C)nc1C(=O)Nc1cccc(C(=O)N(C)CC)c1 [Compound 386] = 0

Q: Requested read-out: Wheat plant response rating. Entry: Cc1nn(C(C)C)nc1C(=O)Nc1cc(C(=O)N2CC=CC2)ccc1F [Compound 402]
Result: 0

Q: CCNC(=O)c1ccc(F)c(NC(=O)c2nn(C(C)C)nc2C)c1 [Compound 401] , same question.
Result: 0

Q: CCNC(=O)c1cccc(NC(=O)c2nn(C(C)(C)C)nc2C)n1 [Compound 437] , same question.
Result: 20

###

System: barnyardgrass
Test Method Notes: Test B pre-/postemergence herbicide test
Assay type: in vivo, Echinochloa crus-galli
Assay Conditions: 125 g ai/ha; 0 = no effect, 100 = complete control; preemergence
As shown below, each of these molecules has a reported Barnyardgrass plant response rating (0 to 100 scale) value.
Kindly provide the number alone.

Consider the reported Barnyardgrass plant response rating (0 to 100 scale) for these molecules:
1) CCn1nc(C(C)(C)C)cc1C(=O)Nc1cc(C(=O)N(C)OC)ccc1F = 80
2) CCNC(=O)c1cncc(NC(=O)c2cc(C(C)(C)C)nn2CC)c1 = 0
3) CCc1nn(C(C)(C)C)cc1C(=O)Nc1cccc(C(=O)N(C)C)n1 = 10
4) CCc1nc(C(C)(C)C)sc1C(=O)Nc1cccc(C(=O)NCCF)c1 = 50

Q: Requested read-out: Barnyardgrass plant response rating (0 to 100 scale). Entry: CCNC(=O)c1ccnc(NC(=O)c2nn(C(C)(C)C)cc2CC)c1
Result: 10

###

As shown below, each of these compounds has a reported Bermudagrass plant response rating value.
Test system: bermudagrass
Test Method Notes: Test C pre-/postemergence herbicide test
Format: in vivo, Cynodon dactylon
Assay Conditions: Preemergence, 500 g ai/ha; scale 0 to 100, 0 no effect, 100 complete control
Kindly provide the number alone.

Consider the reported Bermudagrass plant response rating for these compounds:
1. C=CCn1nc(C(C)(C)C)cc1C(=O)Nc1cccc(C(=O)NCC)c1 = 95
2. CCN1CCc2c(NC(=O)c3cc(C(C)(C)C)nn3CC)cccc2C1=O = 100
3. CCNC(=O)c1ccc(F)c(NC(=O)c2cn(C(C)(C)C)nc2CC)c1 = 100
4. CCn1nc(C2(C)CC2)cc1C(=O)Nc1cc(C(=O)N2CC=CC2)ccc1F = 95
5. C#CCNC(=O)c1cccc(NC(=O)c2cc(C(C)(C)C)nn2CC)n1 = 95
6. C=CCNC(=O)c1cccc(NC(=O)c2cc(C(C)(C)C)nn2C)n1 = 95
7. CCN1N=C(C(C)(C)C)CC1C(=O)Nc1cc(C(=O)N2CC=CC2)ccc1F (racemic) = 100

Q: Requested read-out: Bermudagrass plant response rating. Entry: CCc1nc(C(C)(C)C)sc1C(=O)Nc1cccc(C(=O)NCC2CC2)c1
Result: 100

###

System: morningglory
Test Method Notes: Test C pre-/postemergence herbicide test
Assay type: in vivo, Ipomoea coccinea
Parameters: key: 0 = no effect, 100 = complete control
Assay Conditions: 125 g ai/ha; scale 0 (no effect) to 100 (complete control); visual, 12 to 14 days; preemergence
Experimental Readout: Plant response rating, Morningglory
Kindly provide the number alone.

Consider the reported Plant response rating, Morningglory for these compounds:
1. CCN(CC)C(=O)c1cccc(NC(=O)c2sc(C(C)(C)C)nc2C)c1 = 50
2. CCn1nc(C(C)(C)C)cc1C(=O)Nc1cccc(C(=O)NCC2CC2)c1 = 0
3. C#CCNC(=O)c1cccc(NC(=O)c2cc(C(C)(C)C)nn2CC)n1 = 0
4. CCNC(=O)c1ccc(F)c(NC(=O)c2cc(C3(C)CC3)nn2CC)c1 = 40

// next entry
Q: Requested read-out: Plant response rating, Morningglory. Entry: C=CCn1nc(C(C)(C)C)cc1C(=O)Nc1cccc(C(=O)NCC)c1
Result: 0

###

As shown below, each of these compounds has a reported Plant response rating, Nutsedge, Yellow value.
Test system: yellow nutsedge
Test Method Notes: Test C pre-/postemergence herbicide test
Format: in vivo, Cyperus esculentus
Assay Conditions: 500 g ai/ha; scale 0 to 100 (0 no effect, 100 complete control); visual, 12 to 14 days; preemergence
Kindly provide the number alone.

Consider the reported Plant response rating, Nutsedge, Yellow for these compounds:
1. CCN1N=C(C(C)(C)C)CC1C(=O)Nc1cc(C(=O)N2CC=CC2)ccc1F (racemic) = 15
2. CCc1nn(C(C)C)nc1C(=O)Nc1cccc(C(=O)N(C)CC)c1 = 60
3. CCn1nc(C2(C)CC2)cc1C(=O)Nc1cc(C(=O)N2CC=CC2)ccc1F = 20

Q: Requested read-out: Plant response rating, Nutsedge, Yellow. Entry: CCc1nn(C(C)C)nc1C(=O)Nc1cccc(C(=S)N(C)C)c1
Result: 55
